Target: T1, secretory phospholipase A2 (sPLA2) (Homo sapiens, UniProt P14555 P14555:21-144)
T1 sequence: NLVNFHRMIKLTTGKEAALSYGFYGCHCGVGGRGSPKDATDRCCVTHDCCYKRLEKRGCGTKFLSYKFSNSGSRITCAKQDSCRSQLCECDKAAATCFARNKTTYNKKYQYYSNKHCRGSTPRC
Test: filter; biphasic, Kd2 530 nM, mole fraction 0.40; TBSC, 37 C
Settings: tags: supplied by Eli Lilly
observation-type: Kd
Please answer using the number first and the unit second.

Query :: Supply measured Kd of 73t (ssRNA) RNA: GGGAGCUCAGAAUAAACGCUCAACUUACAGUUCGGCUGAGAGAAGACGCAUACUUCGACAUGAGGCCCGGAUCCGGC in your reply.
Result :: 2.4 nM
